In this section, each of the compounds is paired with its reported IC50.
Target: hP2X3 (human Purinergic P2X receptors subtype 3), clone B (Homo sapiens)
Assay: hP2X3 FLIPR calcium (Fluo-4) antagonist assay, clone B
Details: Human P2X3 FLIPR Clone B IC50 (nM), RLE cells expressing hP2X3 clone B (NM_002559); agonist 500 nM α,β-methylene-ATP
Give the value, in units of nM, as a plain number.

# IC50 lookup, item CC(C)N1Cc2c(nc(NCCN(C)C)nc2N2CCCC2Cc2ccc(Cl)cc2)C1=O (stereo not shown)
8500

Quick one: IC50 for `CC(=O)N1CCN(c2nc(N[C@H](C)c3ccc(OC(CF)CF)cc3)c3c(n2)C(=O)N(C(C)C)C3)CC1` ?
430

Which IC50 value belongs to `CC(=O)N1CCN(c2nc3c(c(N4CCC[C@@H]4C(=O)OCc4ccccc4)n2)CN(C(C)C)C3=O)CC1` ?
850

Value lookup for IC50; key = CC(=O)N1CCN(c2nc(NC(C)(C)Cc3ccc(F)cc3)c3c(n2)C(=O)N(C(C)C)C3)CC1C (stereo not shown)
750

// IC50 lookup, key: `CC(=O)N1CCN(c2nc3c(c(N(C)Cc4ccc(Cl)cc4)n2)CN(C(C)C)C3=O)CC1`
9000

Look up IC50: `CC(=O)N1CCN(c2nc(NC(C)(C)Cc3ccccc3C)c3c(n2)C(=O)N(C(C)C)C3)CC1`
1900

Now look at this entry.
IC50 for `CC(=O)N1CCN(c2nc(NCc3cnc4ccccc4c3)c3c(n2)C(=O)N(C(C)C)C3)C[C@@H]1C` ?
91

---

Biological target: hP2X3 (human Purinergic P2X receptors subtype 3), clone B (Homo sapiens, UniProt P56373)
Sequence (P56373 whole entry): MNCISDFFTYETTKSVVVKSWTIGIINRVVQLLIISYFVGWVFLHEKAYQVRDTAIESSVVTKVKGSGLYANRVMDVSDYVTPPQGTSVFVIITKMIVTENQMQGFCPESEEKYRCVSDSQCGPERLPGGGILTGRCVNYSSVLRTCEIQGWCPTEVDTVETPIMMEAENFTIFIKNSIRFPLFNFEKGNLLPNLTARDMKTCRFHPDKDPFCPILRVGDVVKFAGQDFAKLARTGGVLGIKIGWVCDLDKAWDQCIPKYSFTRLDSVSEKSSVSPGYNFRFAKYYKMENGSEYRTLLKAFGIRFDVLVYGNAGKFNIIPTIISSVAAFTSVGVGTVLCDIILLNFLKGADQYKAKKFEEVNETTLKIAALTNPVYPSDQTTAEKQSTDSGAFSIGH
Experiment: hP2X3 FLIPR calcium (Fluo-4) antagonist assay, clone B
Settings: Human P2X3 FLIPR Clone B IC50 (nM), RLE cells expressing hP2X3 clone B (NM_002559); agonist 500 nM α,β-methylene-ATP
# Lookup of reported IC50 keyed by entry

Form entry - test system: hP2X3 (human Purinergic P2X receptors subtype 3), clone B (Homo sapiens, UniProt P56373); read-out: IC50; compound: CCOc1ccc(CC2CCCN2c2nc(N3CCN(C(C)=O)CC3)nc3c2CN(C(C)C)C3=O)cc1 (stereo not shown)
330 nM

Recorded IC50 for CCC(Nc1nc(N2CCN(C(C)=O)CC2)nc2c1CN(C(C)C)C2=O)c1ccc(C(F)(F)F)cc1 (stereo not shown) with hP2X3 (human Purinergic P2X receptors subtype 3), clone B (Homo sapiens, UniProt P56373), please?
430 nM

State its IC50 on hP2X3 (human Purinergic P2X receptors subtype 3), clone B (Homo sapiens, UniProt P56373): CC(C)N1Cc2c(NC(c3ccccc3)c3ccc(Cl)cc3)nc(N3CC4CC3CN4C)nc2C1=O (stereo not shown)
100 nM

Now let's try a different one.
Checklist item: IC50 tested on hP2X3 (human Purinergic P2X receptors subtype 3), clone B (Homo sapiens, UniProt P56373), entry `CC(=O)N1CCN(c2nc(NCc3cc4ccccc4n3C)c3c(n2)C(=O)N(C(C)C)C3)CC1` , value?
500 nM

---

Overview of recorded IC50 for various compounds
Target: hP2X3 (human Purinergic P2X receptors subtype 3), clone B (Homo sapiens, UniProt P56373)
Assay: hP2X3 FLIPR calcium (Fluo-4) antagonist assay, clone B
Details: Human P2X3 FLIPR Clone B IC50 (nM), RLE cells expressing hP2X3 clone B (NM_002559); agonist 500 nM α,β-methylene-ATP
Could you give me the number in nM? Just the number is fine.

GET /values?readout=IC50&item= CC(C)N1Cc2c(NCc3cnc4ccccc4c3)nc(N3CCN4C(=O)CCC4C3)nc2C1=O (centres unmarked)
870

Continuing:
Recorded IC50 for `CC(=O)N1CCN(c2nc3c(c(N(Cc4ccccc4)Cc4ccc(Cl)cc4)n2)CN(C(C)C)C3=O)CC1` , please?
270

Sample CCCc1ccc(C(C)Nc2nc(N3CCN(C(C)=O)CC3)nc3c2CN(C(C)C)C3=O)cc1 (centres unmarked) — what was its IC50?
160

For `CC(C)N1Cc2c(NCc3cnc4ccccc4c3)nc(N3CCC(N(C)C)CC3)nc2C1=O` , what is its reported IC50?
7800

---

Listing: IC50 of selected compounds
Biological target: rat P2X2/3 (rat P2X3 co-expressed with rat P2X2) (Rattus norvegicus, UniProt P49653+P49654)
Assay: rat P2X2/3 FLIPR calcium (Fluo-4) antagonist assay
Settings: Rat P2X2/3 FLIPR Mean IC50 (nM), HEK-TREX cells, tetracycline-induced rat P2X3 with constitutive rat P2X2; agonist 500 nM α,β-methylene-ATP

// IC50 lookup, key: CC(=O)N1CCN(c2nc(N[C@H](C)c3ccc(I)cc3)c3c(n2)C(=O)N(C(C)C)C3)CC1 [Example 165]
11100 nM

If you can, please state the reported IC50 value of COc1ccc(CC2CCCN2c2nc(N3CCN(C(C)=O)CC3)nc3c2CN(C(C)C)C3=O)cc1 (stereo not shown) [Example 286] .
3430 nM

Need IC50 of CC(=O)N1CCN(c2nc3c(c(N4CCCC4c4cccc(Cl)c4)n2)CN(C(C)C)C3=O)CC1 (stereo not shown) [Example 132] , thanks.
13300 nM

Next:
Give the measured IC50 of COc1ccc(CC2CCCN2c2nc(N3CCN(C(C)=O)CC3)nc3c2CN(C(C)C)C3=O)cc1 (single isomer, unassigned) [Example 287] .
1500 nM

---

Consider the following molecules and their measured IC50 readings.
Target: rat P2X2/3 (rat P2X3 co-expressed with rat P2X2) (Rattus norvegicus, UniProt P49653+P49654)
Sequence (P49654 1-397): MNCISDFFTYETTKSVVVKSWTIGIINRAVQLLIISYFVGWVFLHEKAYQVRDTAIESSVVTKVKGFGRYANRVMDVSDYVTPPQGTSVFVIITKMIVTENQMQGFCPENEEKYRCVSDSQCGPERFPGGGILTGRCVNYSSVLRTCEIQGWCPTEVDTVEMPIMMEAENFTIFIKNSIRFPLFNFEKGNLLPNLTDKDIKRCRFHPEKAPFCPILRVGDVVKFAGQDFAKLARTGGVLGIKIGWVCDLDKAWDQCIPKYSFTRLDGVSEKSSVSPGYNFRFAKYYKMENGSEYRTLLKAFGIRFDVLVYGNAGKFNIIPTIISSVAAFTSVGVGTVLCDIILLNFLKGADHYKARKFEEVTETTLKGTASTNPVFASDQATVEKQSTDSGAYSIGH
Sequence (P49653 1-472): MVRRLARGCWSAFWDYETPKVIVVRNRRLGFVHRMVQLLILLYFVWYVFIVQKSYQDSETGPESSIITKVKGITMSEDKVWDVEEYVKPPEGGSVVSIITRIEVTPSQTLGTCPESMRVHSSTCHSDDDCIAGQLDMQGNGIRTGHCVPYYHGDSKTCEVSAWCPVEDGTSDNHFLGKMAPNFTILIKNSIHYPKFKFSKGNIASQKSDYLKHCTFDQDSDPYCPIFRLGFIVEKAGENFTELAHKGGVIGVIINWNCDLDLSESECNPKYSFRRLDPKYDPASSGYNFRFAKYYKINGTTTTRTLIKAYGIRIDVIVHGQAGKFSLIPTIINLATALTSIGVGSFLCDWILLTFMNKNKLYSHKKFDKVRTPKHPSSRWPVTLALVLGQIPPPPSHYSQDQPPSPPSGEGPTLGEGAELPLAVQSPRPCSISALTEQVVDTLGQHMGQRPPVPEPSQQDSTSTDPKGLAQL
Assay: rat P2X2/3 FLIPR calcium (Fluo-4) antagonist assay
Conditions: Rat P2X2/3 FLIPR Mean IC50 (nM), HEK-TREX cells, tetracycline-induced rat P2X3 with constitutive rat P2X2; agonist 500 nM α,β-methylene-ATP
Please state the figure in nM; there is no need to write the unit.

Query (molecule): `CC(=O)N1CCN(c2nc(NCc3nnc(-c4ccccc4)o3)c3c(n2)C(=O)N(C(C)C)C3)CC1` ; field requested: IC50
6750

Dear colleague, I am looking for the recorded IC50 of the following molecule: `CC(=O)N1CCN(c2nc(NCc3ccc(OC(F)(F)F)cc3C)c3c(n2)C(=O)N(C(C)C)C3)CC1`
6320

# input molecule: CC(=O)N1CCN(c2nc(N[C@@H](C)c3cnc4ccccc4c3)c3c(n2)C(=O)N(C(C)C)C3)CC1 (single isomer, unassigned) ; wanted: its IC50
1910

Bench note: what IC50 did `CC(=O)N1CCN(c2nc(NC3(c4ccc(Cl)cc4)CC3)c3c(n2)C(=O)N(C(C)C)C3)CC1` show?
13300

Name the recorded IC50 for `CCN(Cc1cnc2ccccc2c1)c1nc(N2CCN(C(C)=O)CC2)nc2c1CN(C(C)C)C2=O` .
10400

Query: IC50; subject: CC(=O)N1CCN(c2nc3c(c(N4CCCC4c4cnc5ccccc5c4)n2)CN(C(C)C)C3=O)CC1 (stereo not shown) [Example 274]
768

Find the recorded IC50 belonging to `CC(=O)N1CCN(c2nc3c(c(N4CCC[C@@H]4C(=O)Oc4ccccc4)n2)CN(C(C)C)C3=O)CC1` and report it.
8730

Attribution: patent US20090099195A1
